system: NCI-H226 lung; experiment: NCI tumour cell line growth inhibition, 48 h
value.type: TGI (µM)
One number for each entry, in µM.

For orientation, consider the following solved cases.
# compound, unit.of.measurement, TGI
data = [
    ("N#Cc1ccc(O)c(C2=NCC(c3cccc(Oc4ccccc4)c3)O2)c1 (stereo unspecified)", "µM", 11.1),
    ("CC1(C)OC2[C@@H](CNC(=O)NC(=O)NC(=O)CI)O[C@@H](n3cnc4c(NC(=O)Nc5ccccc5)ncnc43)[C@H]2O1 (stereo partly specified)", "µM", 20.3),
    ("CC/C(=C(/c1ccc(O)cc1)c1ccc(OCCNC)cc1)c1ccccc1", "µM", 20.3),
    ("CCC(C)c1c(Cl)nc(Cl)nc1Cl (stereo unspecified)", "µM", 7.75),
]

Please look at the following compound next.
Read off the recorded TGI for CC[C@@]1(O)C(=O)OCc2c1cc1n(c2=O)Cc2c-1nc1cc3c(cc1c2CCl)OCO3
1.3
